These data points were gathered from patent US20060111381A1.

System: ICR mice
Assay: Phenylquinone-induced writhing model in mice (writhes counted in following 5-10 minute period)
Format: in vivo
Conditions: 4 mg/kg IP
The molecules listed here are annotated with their No. of Writhings, Average.
QUANTITY MEASURED: No. of Writhings, Average

MOLECULE	SYSTEM UNDER TEST	QUANTITY MEASURED	QUANTITATIVE RESULT
CC(=Nc1ccccc1)NCCCN1CC[C@]23c4c5ccc(O)c4O[C@H]2[C@@H](O)C=CC3[C@H]1C5 (stereo partly shown) [KRS-6-51]	ICR mice	No. of Writhings, Average	10
CCC(=Nc1ccccc1CC)NCCCN1CC[C@]23c4c5ccc(O)c4O[C@H]2[C@@H](O)C=CC3[C@H]1C5 (stereo partly shown) [KRS-6-71]	ICR mice	No. of Writhings, Average	11
CC(=N)NCCCN1CC[C@]23c4c5ccc(O)c4O[C@H]2[C@@H](O)C=CC3[C@H]1C5 (stereo partly shown) [KRS-6-41]	ICR mice	No. of Writhings, Average	12
CCC(=Nc1ccccc1)NCCCN1CC[C@]23c4c5ccc(O)c4O[C@H]2[C@@H](O)C=CC3[C@H]1C5 (stereo partly shown) [KRS-6-48]	ICR mice	No. of Writhings, Average	9
